experiment: log P value (water octanol distribution coefficient) of organic solvents; settings: log P value (water octanol distribution coefficient), octanol/water
Quantity name: logP
Just the number.

Qu. Reported logP for O=C1CCCO1 : what is it?
Ans. -0.64

###

assay: physchem
Response key: Fulfilled means logP >= 1; Not fulfilled means logP < 1.

Please review the entries below; each comes with its answer.
Compound: CCCCOCCOCCOCCO
Assigned category: Not fulfilled
--
Compound: CC(O)CO (stereo not shown)
Assigned category: Not fulfilled

Qu. State whether the measured logP reaches 1, counting equality as reaching it, for CCC(=O)OCC(C)OC(=O)CC (stereo not shown) [propylene glycol dipropionate]
Ans. Fulfilled

Qu. Next: CCC(=O)N(C)C [N,N-dimethyl propionamide]
Ans. Not fulfilled

Qu. Subsequent entry: COC(C)CCO (stereo not shown)
Ans. Not fulfilled

Qu. Query CCCCOCCOCCO next
Ans. Fulfilled

Qu. Consider next the compound CCCCCCOCCO in the same way.
Ans. Fulfilled
